B1: KIAA0774 (parent)
chain: FEDEVKRLGWQQQAELQELEERLQ

Variants of: B1
Assay: protein stability index of a GFP-peptide fusion (GPS, HEK-293T) (PSI 1-6); higher = more stable;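 note: lentivirally expressed fusions sorted by FACS into six bins by GFP to DsRed ratio, PSI derived from sequencing read proportions per bin multiplied by bin number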
Conditions: c terminus: a fixed tail appended
Please use Met whenever protein stability index is not below 5, and Not met whenever it is.

# macromolecule.sequence, classification
measured = [
    ("FEDEVKRLGWQQQAELQELEERYQ", "Not met"),
    ("REDEVKRLGWQQQAELQELEERLQ", "Not met"),
    ("FEDEVKRLGRQQQAELQELEERLQ", "Met"),
    ("FEDEVKRLGWQDQAELQELEERLQ", "Not met"),
    ("EEDEVKRLGWQQQAELQELEERLQ", "Not met"),
]

q: Check the entry `FEDEVKRLGWQQQAELQWLEERLQ` : does protein stability index equal or exceed 5?
a: Not met

q: Check the entry `TEDEVKRLGWQQQAELQELEERLQ` : does protein stability index equal or exceed 5?
a: Not met

q: Check the entry `FEDEVKRLGWQQQAEYQELEERLQ` : does protein stability index equal or exceed 5?
a: Not met

q: Check the entry `FADEVKRLGWQQQAELQELEERLQ` : does protein stability index equal or exceed 5?
a: Not met

q: Check the entry `FEDAVKRLGWQQQAELQELEERLQ` : does protein stability index equal or exceed 5?
a: Not met

q: Check the entry `FEDEVKRLGWQQAAELQELEERLQ` : does protein stability index equal or exceed 5?
a: Not met

q: Check the entry `FEDEVKRLGWRQQAELQELEERLQ` : does protein stability index equal or exceed 5?
a: Not met

q: Check the entry `FEDEVKRLGEQQQAELQELEERLQ` : does protein stability index equal or exceed 5?
a: Met

q: Check the entry `FEDEVKALGWQQQAELQELEERLQ` : does protein stability index equal or exceed 5?
a: Not met

q: Check the entry `FEDEVKRLGWQQQAELQELEERMQ` : does protein stability index equal or exceed 5?
a: Not met

q: Check the entry `FEDEVKRLGWQQQAELQELEEGLQ` : does protein stability index equal or exceed 5?
a: Met

q: Check the entry `FEDEVKRLGWQQQACLQELEERLQ` : does protein stability index equal or exceed 5?
a: Not met

q: Check the entry `FEDEVKRLGWQQQAHLQELEERLQ` : does protein stability index equal or exceed 5?
a: Not met

q: Check the entry `FEDEVKRLGWQQIAELQELEERLQ` : does protein stability index equal or exceed 5?
a: Not met

q: Check the entry `FEDEVKRLGWQQQAEMQELEERLQ` : does protein stability index equal or exceed 5?
a: Not met

q: Check the entry `FEKEVKRLGWQQQAELQELEERLQ` : does protein stability index equal or exceed 5?
a: Not met

q: Check the entry `FEDEVKRLGWQQQAELQENEERLQ` : does protein stability index equal or exceed 5?
a: Met
